Values were extracted from PubChem BioAssay AID1457.

experiment: qHTS Assay for Identifying the Cell-Membrane Permeable IMPase Inhibitors: Potentiation with Lithium; details: CHO-M1 cells, IP1 TR-FRET (IP-One), carbachol + lithium; series mostly up to 59.4 µM
Among all 210,000 compounds or so, about 730 (0.35%) were called active. About 1% were inconclusive and are not listed. Calls follow the shape of the dose curve; as a rule, active = well fitted inhibition curve with a large enough effect; inconclusive = small, poorly fitted or top-dose-only effect; inactive = no such curve, though single readings can be large or run the other way. For the sample, actives were picked, then their nearest neighbours and some compounds at random.
Possible outcomes: label 1 = active, label 0 = inactive

compound | group
COC(C)C(C(=O)OCC1=CCN2CC[C@H](O)[C@@H]12)C(C)C (stereo not given in full) | label 0
CCOC(=O)c1c(C)[nH]c2c1-c1ccccc1C(=O)C2=O | label 0
O=C(Nc1ccnc(-c2ccncc2)n1)c1cccs1 | label 0
CCCCS(=O)(=O)N1C2=NC(C(=O)OC)=C(C(=O)OC)[C@@H]3N(Cc4ccccc4)c4ccccc4[C@]23C[C@H]1C(=O)OC | label 0
CCOC(=O)c1c(C)nc(-c2ccccc2)nc1NC(=O)C(C)C | label 0
N#Cc1cccc(CS(=O)(=O)c2nnnn2-c2cc(C(F)(F)F)cc(C(F)(F)F)c2)c1 | label 0
CC(C)=CCN1CCC2(CCc3ccccc32)CC1 | label 0
CN(c1nc2ccccc2n2c(-c3ccco3)nnc12)S(=O)(=O)c1ccccc1 | label 1
Cc1cc2oc(=O)cc(-c3ccccc3)c2c(C)c1-c1ccc(OC(F)(F)F)cc1 | label 0
O=C1OCCN1C(=O)[C@H]1[C@H](c2ccccc2)C(c2ccc(F)cc2)=NN1c1ccccc1 | label 0

* * *

assay: qHTS Assay for Identifying the Cell-Membrane Permeable IMPase Inhibitors: Potentiation with Lithium; details: CHO-M1 cells, IP1 TR-FRET (IP-One), carbachol + lithium; series mostly up to 59.4 µM;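 also: IP1 builds up when IMPase is blocked and the TR-FRET signal falls; nearly all actives have a fitted effect of over 50% in size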
In all, about 210,000 compounds went through this assay and about 730 (0.35%) were called active. About 1% were inconclusive and are not listed. Calls come from the whole dose curve; as a rule, active = well fitted inhibition curve with a large enough effect; inconclusive = small, poorly fitted or top-dose-only effect; inactive = no such curve, though single readings can be large or run the other way. The sample as a whole holds a higher share of actives than the screen did.
Possible outcomes: y for active, n for inactive

smiles_record | group
COc1ccc2c(c1)O[C@@H](c1ccc3c(c1)OCO3)[C@H](OC(=O)NCc1ccco1)C2=O | n
C=CCN(CC=C)S(=O)(=O)c1ccc(C(=O)Nc2nc3c(s2)CCc2ccccc2-3)cc1 | n
C=CCN(CC=C)S(=O)(=O)c1ccc(C(=O)Nc2sc3c(c2C(N)=O)CCCCC3)cc1 | y
CCCCC/C=C\C/C=C\CCCCCCCCCC(N)=O | n
Cc1ccc(C(=O)c2c(NC(=O)c3ccncc3)sc3c2CCCC3)cc1 | n

* * *

assay: qHTS Assay for Identifying the Cell-Membrane Permeable IMPase Inhibitors: Potentiation with Lithium; conditions: CHO-M1 cells, IP1 TR-FRET (IP-One), carbachol + lithium; series mostly up to 59.4 µM;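 also: IP1 builds up when IMPase is blocked and the TR-FRET signal falls; nearly all actives have a fitted effect of over 50% in size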
In all, about 210,000 compounds went through this assay and about 730 (0.35%) were called active. Inconclusive results (about 1%) are left out. Calls follow the shape of the dose curve; as a rule, active = well fitted inhibition curve with a large enough effect; inconclusive = small, poorly fitted or top-dose-only effect; inactive = no such curve, though single readings can be large or run the other way. Only a selection was taken, and actives are over-represented in it overall.
Possible outcomes: 1 (yes) = active, 0 (no) = inactive

smiles_record | group
CSc1ccc(C#N)cc1NC(=O)c1cccc(Cl)c1 | 0 (no)
COc1ccc(CC(=O)Nc2ccc(C(=O)NC(C)(C)C)cc2)cc1 | 0 (no)
COc1ccc(CC(=O)Nc2ccc(-c3nnc(-c4ccccc4)o3)cc2)cc1 | 1 (yes)
CN(C)[C@@H]1C(=O)C(C(N)=O)=C(O)[C@@]2(O)C(=O)C3=C(O)c4c(O)ccc(Cl)c4[C@@H](O)[C@H]3C[C@@H]12 | 1 (yes)
N#Cc1ccccc1NC(=O)c1cccc(COc2ccc(Cl)cc2Cl)c1 | 1 (yes)
CCOC(=O)C1=NO[C@@]2(C=C(Br)C(=O)[C@H]3O[C@H]32)C1 | 0 (no)

* * *

assay: qHTS Assay for Identifying the Cell-Membrane Permeable IMPase Inhibitors: Potentiation with Lithium; settings: CHO-M1 cells, IP1 TR-FRET (IP-One), carbachol + lithium; series mostly up to 59.4 µM;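 also: IP1 builds up when IMPase is blocked and the TR-FRET signal falls; nearly all actives have a fitted effect of over 50% in size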
Screen size: about 210,000 compounds; about 730 (0.35%) were called active. Another 1% or so got no clear call; they are omitted. Calls follow the shape of the dose curve; as a rule, active = well fitted inhibition curve with a large enough effect; inconclusive = small, poorly fitted or top-dose-only effect; inactive = no such curve, though single readings can be large or run the other way. For the sample, actives were picked, then their nearest neighbours and some compounds at random.
Possible outcomes: 1.0 = active, 0.0 = inactive

molecule | group
C/C(Nc1ccc2oc(=O)ccc2c1)=C1/C(=O)CC2[C@@H]1C2(C)C (some centres not stated) | 0.0
C=CCOC(=O)NC(c1ccc(F)c(F)c1)C(C(=O)COC)C(=O)OC (configuration not stated) | 0.0
CNc1nccc(-c2ccc(Cl)cc2)c1C#N | 0.0
CCCCC/C=C\C/C=C\CCCCCCCCCC(=O)O | 0.0
O=C1C=C(c2ccccc2)CCC1 | 0.0
O=C(COC(=O)c1ccccc1)Nc1ccccc1Sc1ccccc1 | 0.0
CC(O)[C@@H](N)C(=O)O (some centres not stated) | 0.0
Cc1nc2cc(NC(=O)CSc3nc4c(C)cccc4cc3C#N)ccc2s1 | 1.0
CCCCC/C=C\C/C=C\C/C=C\CCCCCCC(N)=O | 0.0
O=C(COC(=O)Cn1cnc2ccccc21)Nc1cccc2c1C(=O)c1ccccc1C2=O | 0.0
N#Cc1c(-c2ccc(Cl)cc2)c2c([nH]c1=S)CCCC2 | 0.0
COC(=O)C1=C(C(=O)OC)[C@@H]2N(C)c3ccccc3[C@@]23C[C@@H](C(=O)OC)N(C(C)=O)C3=N1 | 0.0
Cc1ccc2cc(C#N)c(SCC(=O)NCC3CCCO3)nc2c1C (configuration not stated) | 0.0
CCCCCCCC/C=C\CCCCCCCC(=O)OC[C@H](CO)OC(C)=O | 0.0
CC1=C2[C@@H](O)[C@H]([C@@H](C)C(=O)NCCC(C)C)CC[C@@]2(C)C=CC1=O | 0.0
CC/C=C\C/C=C\C/C=C\C/C=C\C/C=C\C/C=C\CCC(=O)NCCc1ccc(O)c(O)c1 | 0.0
O=C(COC(=O)c1cccc(Br)c1)Nc1cccc2c1C(=O)c1ccccc1C2=O | 1.0
CC(C)[C@@H]1NC(=O)[C@H](Cc2ccccc2)NC(=O)[C@@H](CC(=O)O)NC(=O)CNC(=O)[C@H](CCCNC(=N)N)NC1=O | 0.0
CCOC(=O)C1=C(C)c2ccccc2OC1(C)C(=O)OCC (configuration not stated) | 0.0
O=C(NCc1ccco1)O[C@@H]1C(=O)c2cc(Br)ccc2O[C@H]1c1ccc2c(c1)OCO2 | 0.0
CCCCC/C=C\C/C=C\C/C=C\CCCCC(=O)NCC(=O)O | 0.0
O=C1CCC[C@@H]2CC(N3CCCCC3)C[C@@H]3CCN1[C@H]23 (some centres not stated) | 0.0

* * *

assay: qHTS Assay for Identifying the Cell-Membrane Permeable IMPase Inhibitors: Potentiation with Lithium; settings: CHO-M1 cells, IP1 TR-FRET (IP-One), carbachol + lithium; series mostly up to 59.4 µM;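 also: IP1 builds up when IMPase is blocked and the TR-FRET signal falls; nearly all actives have a fitted effect of over 50% in size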; also: potency is read from the fitted curve at half-maximal effect
Out of some 210,000 compounds screened, about 730 (0.35%) were called active. Roughly 1% stayed inconclusive and do not appear here. Shown is part of a subset that was picked to be rich in actives.
reported_endpoint: Potency

compound | experimental_result
CCN(CC)CCN1C(=O)C(=O)/C(=C(/O)c2ccccc2)C1c1ccccc1F (stereo not given) | inactive
COc1cc(C2/C(=C(\O)c3ccc4c(c3)CC(C)O4)C(=O)C(=O)N2Cc2ccco2)ccc1O (stereo not given) | inactive
CC(C)(Oc1ccc(C2CC2(Cl)Cl)cc1)C(=O)O (stereo not given) | inactive
CCC(C)[C@@H](N)C(=O)O (stereo not given in full) | inactive
CC1Cc2cc(/C(O)=C3\C(=O)C(=O)N(CCN4CCOCC4)C3c3ccccc3F)ccc2O1 (stereo not given) | 10 µM (active)
